Kindly state Kd for each of the entries shown.
# EXPERIMENTAL TARGET: EGFR T790M, L858R (amino acids 669-1011) (Homo sapiens, UniProt P00533, L858R/T790M)
# Sequence (P00533 669-1011 T790M/L858R): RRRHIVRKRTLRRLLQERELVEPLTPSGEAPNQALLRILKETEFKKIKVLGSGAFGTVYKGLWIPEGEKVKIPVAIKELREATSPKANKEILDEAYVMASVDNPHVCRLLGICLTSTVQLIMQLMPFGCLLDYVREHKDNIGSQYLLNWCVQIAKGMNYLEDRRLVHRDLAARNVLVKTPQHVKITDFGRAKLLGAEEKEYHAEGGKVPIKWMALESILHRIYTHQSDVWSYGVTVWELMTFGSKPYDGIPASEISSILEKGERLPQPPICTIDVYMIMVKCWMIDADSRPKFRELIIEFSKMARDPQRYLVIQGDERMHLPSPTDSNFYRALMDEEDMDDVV
# TEST DESCRIPTION: KdELECT binding assay, EGFR T790M, L858R

C=C(COC(=O)N1CCN(c2nc(NCc3nc4cc(C)ccc4[nH]3)n3ncc(Br)c3n2)CC1)C(=O)N1C[C@H](COc2nc(Nc3cnn(C)c3)nc3[nH]cc(Cl)c23)[C@@H](OC)C1 [II-185] : > 2500 nM
C=C(CN1C(=O)CCC(N2Cc3cc(CNC(=O)Nc4ccc(C)c(Cl)c4)ccc3C2=O)C1=O)C(=O)Nc1cc(Nc2ncc(-c3cn(C)c4ccccc34)cn2)c(OC)cc1N(C)CCN(C)C (stereo not shown) [Compound I-87] : < 50 nM
C=C(CN(C(=O)NCc1ccc2c(c1)CN(C1CCC(=O)NC1=O)C2=O)c1ccc(C)c(Cl)c1)C(=O)Nc1cc(Nc2ncc(-c3cn(C)c4ccccc34)cn2)c(OC)cc1N(C)CCN(C)C (stereo not shown) [Compound I-42] : 500 to 2500 nM
C=C(CN1CCN(c2nc(NCc3nc4cc(C)ccc4[nH]3)n3ncc(Br)c3n2)CC1)C(=O)Nc1cccc(-c2cccc3cnc(Nc4ccc(N5CCN(CCO)CC5)c(F)c4F)nc23)c1 [II-191] : 500 to 2500 nM
C=C(COc1cc(Cl)cc(NC(=O)NCc2ccc3c(c2)CN(C2CCC(=O)NC2=O)C3=O)c1)C(=O)N1C[C@H](COc2nc(Nc3cnn(C)c3)nc3[nH]cc(Cl)c23)[C@@H](OC)C1 (stereo partly shown) [Compound I-54] : > 2500 nM

Look at each compound and report its Kd.
1. C=C(COc1cc(Cl)cc(NC(=O)NCc2ccc3c(c2)CN(C2CCC(=O)NC2=O)C3=O)c1)C(=O)N[C@@H]1CN(c2nc(Nc3cn(C)nc3OC)c3ncn(C)c3n2)C[C@H]1F (stereo partly shown) [Compound I-45]
2. C=C(COc1c(Cl)cccc1NC(=O)NCc1ccc2c(c1)CN(C1CCC(=O)NC1=O)C2=O)C(=O)Nc1cc(Nc2nccc(-c3cn(C)c4ccccc34)n2)c(OC)cc1N(C)CCN(C)C (stereo not shown) [Compound I-60]

[A]
1: < 50 nM; 2: < 50 nM

====

# EXPERIMENTAL TARGET: GSPT1 (Homo sapiens, UniProt P15170+Q96SW2)
# Construct: host or cells: HEK293 LgBiT / GSPT1 HiBiT CRISPR knock-in
# TEST DESCRIPTION: GSPT1 HiBiT degradation assay
# Assay type: cell-based
# TEST CONDITIONS: HEK293 LgBiT GSPT1 HiBiT cells, 6 hours
ENDPOINT: DC50

Known results for compounds:
C=C(COc1ccccc1CNC(=O)NCc1ccc2c(c1)CN(C1CCC(=O)NC1=O)C2=O)C(=O)N1CCN(c2nc(OC[C@@H]3CCCN3C)nc3c2CCN(c2cccc4cccc(Cl)c24)C3)C[C@@H]1CC#N (stereo partly shown) [Compound I-63] : > 2.5 µM
C=C(COC(=O)NCc1cc(Cl)cc(NC(=O)NCc2ccc3c(c2)CN(C2CCC(=O)NC2=O)C3=O)c1)C(=O)N1CCN(c2nc(OC[C@@H]3CCCN3C)nc3c2CCN(c2cccc4cccc(Cl)c24)C3)C[C@@H]1CC#N (stereo partly shown) [Compound I-73] : 0.05 to 0.5 µM
C=C(CN(C(=O)NCc1ccc2c(c1)CN(C1CCC(=O)NC1=O)C2=O)c1cc(Cl)cc([N+](=O)[O-])c1)C(=O)N1CCC[C@@H](n2nc(-c3ccc(Oc4ccccc4)cc3)c3c(N)ncnc32)C1 (stereo partly shown) [Compound I-37] : > 2.5 µM

# input for lookup
[Q] Need DC50 of C=C(COc1cc(NC(=O)NCc2ccc3c(c2)CN(C2CCC(=O)NC2=O)C3=O)ccc1OC)C(=O)N1CCN(c2nc(OC[C@@H]3CCCN3C)nc3c2CCN(c2cccc4cccc(Cl)c24)C3)C[C@@H]1CC#N (stereo partly shown) [Compound I-89] , thanks.
[A] 0.5 to 2.5 µM

====

# EXPERIMENTAL TARGET: EGFR T790M/L858R kinase domain (Homo sapiens, UniProt P00533, L858R/T790M)
# Construct: EGFR (amino acids 696-1022, T790M, L858R)
# Sequence (P00533 696-1022 T790M/L858R): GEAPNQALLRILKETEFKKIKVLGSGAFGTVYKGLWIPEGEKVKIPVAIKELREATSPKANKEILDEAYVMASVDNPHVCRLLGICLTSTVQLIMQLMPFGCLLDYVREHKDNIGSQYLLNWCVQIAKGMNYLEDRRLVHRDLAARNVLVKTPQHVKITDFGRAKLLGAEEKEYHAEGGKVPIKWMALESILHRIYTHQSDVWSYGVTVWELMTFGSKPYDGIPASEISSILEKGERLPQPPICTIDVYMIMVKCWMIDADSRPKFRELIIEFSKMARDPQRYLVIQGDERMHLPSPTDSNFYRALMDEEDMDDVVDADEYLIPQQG
# TEST DESCRIPTION: EGFR cellular target engagement assay (HEK293 cells stable for EGFR T790M, L858R)
# TEST CONDITIONS: 6 hours, read-out: TE50 (the source's name)
ENDPOINT: EC50

C=C(COc1c(Cl)cccc1NC(=O)NCc1ccc2c(c1)CN(C1CCC(=O)NC1=O)C2=O)C(=O)N[C@@H]1CN(c2nc(Nc3cn(C)nc3OC)c3ncn(C)c3n2)C[C@H]1F (some centres unmarked) [Compound I-69] : 0.25 to 5 µM
C=C(CN(C(=O)NCc1ccc2c(c1)CN(C1CCC(=O)NC1=O)C2=O)c1ccc(C)c(Cl)c1)C(=O)N1C[C@@H](COc2nc(Nc3cnn(C)c3)nc3[nH]cc(Cl)c23)[C@H](OC)C1 (some centres unmarked) [Compound I-71] : > 10 µM
C=C(COC(=O)N1CCN(c2nc(NCc3nc4cc(C)ccc4[nH]3)n3ncc(Br)c3n2)CC1)C(=O)N[C@@H]1CN(c2nc(Nc3cn(C)nc3OC)c3ncn(C)c3n2)C[C@H]1F [II-184] : 0.25 to 5 µM

Return reported EC50 values for all items listed beneath this line.
1. C=C(COc1c(Cl)cccc1NC(=O)NCc1ccc2c(c1)CN(C1CCC(=O)NC1=O)C2=O)C(=O)Nc1cc(Nc2nccc(-c3cn(C)c4ccccc34)n2)c(OC)cc1N(C)CCN(C)C (centres unmarked) [Compound I-60]
2. C=C(CN(C(=O)NCc1ccc2c(c1)CN(C1CCC(=O)NC1=O)C2=O)c1ccc(C)c(Cl)c1)C(=O)N[C@@H]1CN(c2nc(Nc3cn(C)nc3OC)c3ncn(C)c3n2)C[C@H]1F (some centres unmarked) [Compound I-41]

[A]
["< 0.25 µM", "> 10 µM"]

====

# EXPERIMENTAL TARGET: GSPT1 (Homo sapiens, UniProt P15170+Q96SW2)
# Construct: host or cells: HEK293 LgBiT / GSPT1 HiBiT CRISPR knock-in
# TEST DESCRIPTION: GSPT1 HiBiT degradation assay
# Assay type: cell-based
# TEST CONDITIONS: HEK293 LgBiT GSPT1 HiBiT cells, 6 hours
Consider the following molecules; for each one, report its DC50.

C=C(COc1cc(Cl)cc(NC(=O)NCc2ccc3c(c2F)CN(C2CCC(=O)NC2=O)C3=O)c1)C(=O)N1CCN(c2nc(OC[C@@H]3CCCN3C)nc3c2CCN(c2cccc4cccc(Cl)c24)C3)C[C@@H]1CC#N (stereo partly drawn) : 500 to 2500 nM
C=C(COc1cc(Cl)cc(NC(=O)NCc2ccc3c(c2)CN(C2CCC(=O)NC2=O)C3=O)c1)C(=O)Nc1cccc(-c2cccc3cnc(Nc4ccc(N5CCN(CCO)CC5)c(F)c4F)nc23)c1 (stereo not drawn) : 50 to 500 nM

Next:
[Q] Fill in: DC50 of C=C(COc1cc(Cl)cc(NC(=O)NCc2ccc3c(c2)CN(C2CCC(=O)NC2=O)C3=O)c1)C(=O)N1CC(n2c(=O)c3cc(-c4cc(O)cc5ccccc45)ccc3n2C)C1 (stereo not drawn) is ___
[A] 50 to 500 nM

====

# EXPERIMENTAL TARGET: KRAS G12C (Homo sapiens, UniProt P01116, G12C)
# Sequence (P01116 1-188 isoform P01116-2 G12C): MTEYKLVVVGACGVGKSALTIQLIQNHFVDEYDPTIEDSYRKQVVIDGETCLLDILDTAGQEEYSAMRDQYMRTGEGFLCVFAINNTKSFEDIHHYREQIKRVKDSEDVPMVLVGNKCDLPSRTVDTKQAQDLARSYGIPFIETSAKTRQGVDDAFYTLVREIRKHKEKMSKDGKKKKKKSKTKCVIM
# TEST DESCRIPTION: KRAS G12C cellular target engagement assay (SW1573 cells)
# TEST CONDITIONS: 17 hours, read-out: TE50 (the source's name)
pEC50: −log10 of the molar value.
ENDPOINT: pEC50

Sample records with pEC50:
C=C(COc1cc(NC(=O)NCc2ccc3c(c2)CN(C2CCC(=O)NC2=O)C3=O)cc(OC)c1)C(=O)N1CCN(c2nc(OC[C@@H]3CCCN3C)nc3c2CCN(c2cccc4cccc(Cl)c24)C3)C[C@@H]1CC#N (stereo partly shown) : 5.30 to 6.60
C=C(COc1cccc(NC(=O)NCc2ccc3c(c2)CN(C2CCC(=O)NC2=O)C3=O)c1)C(=O)N1CCN(c2nc(OC[C@@H]3CCCN3C)nc3c2CCN(c2cccc4cccc(Cl)c24)C3)C[C@@H]1CC#N (stereo partly shown) : > 6.60
C=C(COc1cc(-c2ccccn2)ccc1CNc1nc(N[C@H](CC)CO)nc2c1ncn2C(C)C)C(=O)N1CCN(c2nc(OC[C@@H]3CCCN3C)nc3c2CCN(c2cccc4cccc(Cl)c24)C3)C[C@@H]1CC#N : 5.30 to 6.60

Next molecule, please.
[Q] Fill blank: measured pEC50 of the molecule C=C(COc1cc(Cl)cc(NC(=O)NCc2ccc3c(c2)CN(C2CCC(=O)NC2=O)C3=O)c1F)C(=O)N1CCN(c2nc(OC[C@@H]3CCCN3C)nc3c2CCN(c2cccc4cccc(Cl)c24)C3)C[C@@H]1CC#N (stereo partly shown) is ____.
[A] < 5.00
